// provenance: ChEMBL document CHEMBL3507680

# TEST_METHOD_NOTES: Human HepG2 cell viability assay in 384 well format
# Type: toxicity, cell-based
# Set-up: dose 125 nL, time 70.5 hour; concentration not given beside the values
# PARTICULARS: HepG2 cells, read-out: Inhibition
So I've got a bunch of molecules here, and I need their cytotoxicity at 70.5 h values.
One number for each entry, in %.

Dear colleague, could you please provide cytotoxicity at 70.5 h for the molecules listed below?
1. O=C(NCc1nc(NC2CCCC2)c2cc(Cl)ccc2n1)c1cncs1
2. CCOCCN1CCCC1CS(N)(=O)=O (stereo unspecified)
3. Cc1ccc(C2(CN3CCN(Cc4cnc(C)n4C)CC3)CC2)cc1

1: -13.7; 2: -10.1; 3: 32.9
